target: Beta-2 adrenergic receptor (Homo sapiens)
Sequence (P07550 whole entry): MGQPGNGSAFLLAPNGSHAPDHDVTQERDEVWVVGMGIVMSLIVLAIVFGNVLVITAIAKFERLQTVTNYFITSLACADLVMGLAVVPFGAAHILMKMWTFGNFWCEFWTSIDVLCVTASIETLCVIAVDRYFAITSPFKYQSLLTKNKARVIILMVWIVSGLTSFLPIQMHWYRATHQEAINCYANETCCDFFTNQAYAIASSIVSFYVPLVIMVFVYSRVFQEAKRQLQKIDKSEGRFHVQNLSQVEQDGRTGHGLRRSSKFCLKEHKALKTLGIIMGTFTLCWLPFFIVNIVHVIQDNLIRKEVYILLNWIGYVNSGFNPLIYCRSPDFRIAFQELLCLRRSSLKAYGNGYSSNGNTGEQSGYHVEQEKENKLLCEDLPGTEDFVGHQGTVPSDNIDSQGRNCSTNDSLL
quantity_name: Ki (nM)
Your answer should be a plain number; it is taken to be in nM.

**Q:** State, in one line, measured Ki of Cc1c[nH]c2cccc(OCC(O)CN3CCN(C(c4ccccc4)c4ccccc4)CC3)c12 (configuration not stated)
**A:** 0.311

**Q:** State, in one line, measured Ki of CC(C)(C)NCC(O)COc1cccc2oc3ccccc3c12 (configuration not stated)
**A:** 0.145
